B1: RSAD1 (parent)
chain: YCNFNKYIPRRLEEAAMQKCLVTE

Variants of: B1
test.method.notes: protein stability index of a GFP-peptide fusion (GPS, HEK-293T) (PSI 1-6); higher = more stable;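 also: lentivirally expressed fusions sorted by FACS into six bins by GFP to DsRed ratio, PSI derived from sequencing read proportions per bin multiplied by bin number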
applied.conditions: c terminus: a fixed tail appended
Label rule, in plain words: protein stability index of 2 and up is Met, under 2 is Not met.

[[record]]
mutation_string = "I8M"
group = "Not met"

[[record]]
mutation_string = "I8Q"
group = "Not met"

[[record]]
mutation_string = "E13S"
group = "Not met"

[[record]]
mutation_string = "N5D"
group = "Not met"

[[record]]
mutation_string = "M17H"
group = "Met"

[[record]]
mutation_string = "K6W"
group = "Met"

[[record]]
mutation_string = "T23F"
group = "Met"

[[record]]
mutation_string = "Y7K"
group = "Met"

[[record]]
mutation_string = "C20A"
group = "Met"

[[record]]
mutation_string = "Y7M"
group = "Not met"

